# targetSystem: T1, human CD19 (human, UniProt P15391 20-556)
# T1 construct: also called B-cell surface antigen B4; B-cell antigen CD19
# T1 sequence: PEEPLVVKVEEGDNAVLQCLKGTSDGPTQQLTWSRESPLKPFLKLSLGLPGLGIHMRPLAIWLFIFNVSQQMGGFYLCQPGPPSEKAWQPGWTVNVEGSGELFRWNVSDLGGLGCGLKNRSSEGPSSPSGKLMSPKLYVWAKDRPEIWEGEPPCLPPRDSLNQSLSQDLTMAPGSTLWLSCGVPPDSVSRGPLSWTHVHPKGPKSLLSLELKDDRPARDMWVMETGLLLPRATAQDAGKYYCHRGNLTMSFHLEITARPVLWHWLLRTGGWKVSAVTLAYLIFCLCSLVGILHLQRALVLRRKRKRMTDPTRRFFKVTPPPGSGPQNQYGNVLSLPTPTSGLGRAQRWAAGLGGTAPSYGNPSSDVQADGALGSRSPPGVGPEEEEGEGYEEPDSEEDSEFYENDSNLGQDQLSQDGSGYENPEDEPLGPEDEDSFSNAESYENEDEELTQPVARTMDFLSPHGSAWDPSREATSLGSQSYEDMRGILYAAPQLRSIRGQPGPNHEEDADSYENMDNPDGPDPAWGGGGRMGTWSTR
# testDetails: DELFIA competition on Raji cells: unlabeled antibody competes with Eu-labeled anti-CD19 for surface CD19 [upper panel]

binder: H1L2 (antibody, V domains shown, also called 4G7 H1L2) VH: EVQLVESGGGLVKPGGSLKLSCAASGYTFTSYVMHWVRQAPGKGLEWIGYINPYNDGTKYNEKFQGRVTISSDKSISTAYMELSSLRSEDTAMYYCARGTYYYGSRVFDYWGQGTLVTVSS VL: DIVMTQSPSSLSASVGDRVTISCRSSKSLLNSNGNTYLYWFQQKPGQSPQLLIYRMSNLASGVPDRFSGSGSGTEFTLTISSLQPEDVAVYYCMQHLEYPFTFGAGTKLEIK
binding result: binds

binder: H2L0 (antibody, V domains shown, also called 4G7 H2L0) VH: QVQLQESGSGLVKPGGSLRLSCAASGYTFTSYVMHWVRQAPGKGLEWMGYINPYNDGTKYNESLKSRVTISSDKSISTAYMELSSLRAEDTAVYYCARGTYYYGSRVFDYWGQGTLVTVSS VL: DIVMTQAAPSIPVTPGESVSISCRSSKSLLNSNGNTYLYWFLQRPGQSPQLLIYRMSNLASGVPDRFSGSGSGTAFTLRISRVEAEDVGVYYCMQHLEYPFTFGAGTKLELK
binding result: binds
